Origin of measurements: patent US10538535B2

Known log10(GI50) of a selection of compounds
- System: A549 cells
- Assay comment: cells
- Test context: Homo sapiens, A549, 72 h
// stored as log10 of GI50 expressed in nM

Look over these answered cases.
Substance smiles: COc1c(C)cc2c(c1O)[C@@H]1[C@@H]3[C@@H]4SC[C@]5(N[C@H](CO)Cc6c5oc5ccccc65)C(=O)OC[C@@H](c5c6c(c(C)c(OC(C)=O)c54)OCO6)N3[C@@H](C#N)[C@H](C2)N1C
Reported value: 0.91
--
Substance smiles: COc1c(C)cc2c(c1O)[C@@H]1[C@@H]3[C@@H]4SC[C@]5(NCCc6c5oc5ccccc65)C(=O)OC[C@@H](c5c6c(c(C)c(OC(C)=O)c54)OCO6)N3[C@@H](C#N)[C@H](C2)N1C
Reported value: 1.29
--
Substance smiles: COc1ccc2[nH]c3c(c2c1)C[C@@H](C(=O)O)N[C@]31CS[C@@H]2c3c(OC(C)=O)c(C)c4c(c3[C@H](COC1=O)N1[C@@H]2[C@H]2c3c(cc(C)c(OC)c3O)C[C@@H]([C@@H]1O)N2C)OCO4
Reported value: 2.79

For the compound shown here, COc1c(C)cc2c(c1O)[C@@H]1[C@@H]3[C@@H]4SC[C@]5(NCCc6c5oc5ccccc65)C(=O)OC[C@@H](c5c6c(c(C)c(OC(C)=O)c54)OCO6)N3[C@@H](O)[C@H](C2)N1C , give the reported log10(GI50).
0.84

For the compound shown here, C=CCOC(=O)NC[C@@H]1Cc2c([nH]c3ccc(OC)cc23)[C@@]2(CS[C@@H]3c4c(OC(C)=O)c(C)c5c(c4[C@H](COC2=O)N2[C@@H]3[C@H]3c4c(cc(C)c(OC)c4O)C[C@@H]([C@@H]2C#N)N3C)OCO5)N1 , give the reported log10(GI50).
0.86
